Values compiled from patent US9732077B2.

assayed.target: human orexin-2 receptor (Homo sapiens)
Construct: expressed in transfected cells; host or cells: CHO cells (G418 selection)
method.summary: OX2R FLIPR Ca flux assay (CHO cells)
Assay type: cell-based
condition.label: ratio of OX1R FLIPR to OX2R FLIPR
This listing pairs compounds with measured Fold Selectivity OX2R vs. OX1R.

- smiles.repr: "CC(C)(O)c1csc(N2CCCN(C(=O)c3cccnc3OCC(F)(F)F)CC2)n1"
  assayed.target: "human orexin-2 receptor (Homo sapiens)"
  Fold Selectivity OX2R vs. OX1R: ">175 fold"
- smiles.repr: "Cc1cc(C)nc(N2CCCN(C(=O)c3cccnc3OC(C)C)CC2)n1"
  assayed.target: "human orexin-2 receptor (Homo sapiens)"
  Fold Selectivity OX2R vs. OX1R: ">94 fold"
- smiles.repr: "Cc1cc(C)nc(N2CCCN(C(=O)c3ccccc3-n3cccn3)CC2)n1"
  assayed.target: "human orexin-2 receptor (Homo sapiens)"
  Fold Selectivity OX2R vs. OX1R: ">113 fold"

---

Each entry below lists one item and its recorded log10 of IC50 value.
assayed.target: UniProt:O43614
method.summary: OX2R FLIPR Ca flux assay (CHO cells)
condition.label: CHO cells expressing human orexin-2 receptor; agonist 70 pM Ala-6,12 orexin-A
measurement.name: log10 of IC50 (log10 of the value in nM)

- compound: "CC(C)(O)c1csc(N2CCCN(C(=O)c3cccnc3OCC(F)(F)F)CC2)n1 [Example 23]"
  readout.number: 1.76
- compound: "Cc1cc(C)nc(N2CCCN(C(=O)c3ccccc3C3CC3)CC2)n1 [Example 9]"
  readout.number: 1.23
- compound: "CC(C)(O)c1csc(N2CCCN(C(=O)c3ccc(F)cc3-n3nccn3)CC2)n1 [Example 26]"
  readout.number: 2.13
- compound: "Cc1cc(C)nc(N2CCCN(C(=O)c3ccccc3-n3nccn3)CC2)n1 [Example 2]"
  readout.number: 1.45
- compound: "Cc1cc(C)nc(N2CCCN(C(=O)c3ccccc3OC(F)F)CC2)n1 [Example 5]"
  readout.number: 1.88
- compound: "Cc1cc(C)nc(N2CCCN(C(=O)c3ccccc3-n3cccn3)CC2)n1 [Example 8]"
  readout.number: 1.94
- compound: "Cc1oc(N2CCCN(C(=O)c3ccccc3OC(F)F)CC2)nc1C(C)(C)O [Example 12]"
  readout.number: 1.08
- compound: "CCOc1ccccc1C(=O)N1CCCN(c2nc(C(C)(C)O)c(C)o2)CC1 [Example 19]"
  readout.number: 1.28

---

Documented Fold Selectivity OX2R vs. OX1R across a set of molecules
assayed.target: human orexin-2 receptor (Homo sapiens)
Construct: expressed in transfected cells; host or cells: CHO cells (G418 selection)
Sequence (O43614 1-444): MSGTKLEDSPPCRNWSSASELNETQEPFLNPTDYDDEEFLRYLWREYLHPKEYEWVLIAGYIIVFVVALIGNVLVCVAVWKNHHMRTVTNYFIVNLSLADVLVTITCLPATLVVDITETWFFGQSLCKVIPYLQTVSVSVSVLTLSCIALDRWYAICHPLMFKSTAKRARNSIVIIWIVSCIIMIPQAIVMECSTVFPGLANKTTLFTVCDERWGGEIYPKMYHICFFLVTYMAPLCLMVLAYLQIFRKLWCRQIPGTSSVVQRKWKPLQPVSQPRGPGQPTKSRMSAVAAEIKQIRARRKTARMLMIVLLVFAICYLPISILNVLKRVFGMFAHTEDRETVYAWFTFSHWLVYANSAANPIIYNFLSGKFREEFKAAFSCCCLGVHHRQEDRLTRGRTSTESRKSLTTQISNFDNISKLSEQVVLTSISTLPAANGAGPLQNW
method.summary: OX2R FLIPR Ca flux assay (CHO cells)
Format: cell-based
condition.label: ratio of OX1R FLIPR to OX2R FLIPR

- smiles.repr: "CC(C)(O)c1csc(N2CCCN(C(=O)c3ccccc3OC(F)(F)F)CC2)n1"
  Fold Selectivity OX2R vs. OX1R: ">46 fold"
- smiles.repr: "Cc1cc(C)nc(N2CCCN(C(=O)c3cccnc3OCC(F)F)CC2)n1"
  Fold Selectivity OX2R vs. OX1R: ">500 fold"
- smiles.repr: "CC(C)(O)c1csc(N2CCCN(C(=O)c3cccnc3OCC(F)F)CC2)n1"
  Fold Selectivity OX2R vs. OX1R: ">111 fold"
- smiles.repr: "Cc1cc(C)nc(N2CCCN(C(=O)c3ccccc3OC(F)F)CC2)n1"
  Fold Selectivity OX2R vs. OX1R: ">131 fold"
- smiles.repr: "Cc1oc(N2CCCN(C(=O)c3cccnc3OC(C)C)CC2)nc1C(C)(C)O"
  Fold Selectivity OX2R vs. OX1R: ">244 fold"
- smiles.repr: "CC(C)(O)c1csc(N2CCCN(C(=O)c3ccc(F)cc3-n3nccn3)CC2)n1"
  Fold Selectivity OX2R vs. OX1R: ">73 fold"
